system: HRgpA-6H (Porphyromonas gingivalis) (UniProt P28784)
test protocol: ELISA on coated HRgpA-6H
Listing of recorded OD450nm by entry.
The response must contain the number and no unit.

KB001 mouse Fab FASEBA VH S61H (Fab, V domains shown) VH: EVQLKQSGPGLVAPSQSLSITCTVSGFSLSIYSVHWVRQPPGKGLEWLGMIWGGGSSDYNHALKSRLSISKDNSKSQVFLKMNSLQTDDTAMYYCARNGNFYAMDYWGQGTSVTVSS VL: QIVLTQSPAIMSASLGERVTMTCTASSSVSSSFLHWYQQKPGSSPQLWIYSTSNLASGVPARFSGSGSGTSYSLTISSMEAEDAATYYCHQYHHSPYIYTFGGGTKLEIK :: 0.469

Which OD450nm value is on record for KB001 mouse Fab FASEBA VH K64Y (Fab, V domains shown) VH: EVQLKQSGPGLVAPSQSLSITCTVSGFSLSIYSVHWVRQPPGKGLEWLGMIWGGGSSDYNSALYSRLSISKDNSKSQVFLKMNSLQTDDTAMYYCARNGNFYAMDYWGQGTSVTVSS VL: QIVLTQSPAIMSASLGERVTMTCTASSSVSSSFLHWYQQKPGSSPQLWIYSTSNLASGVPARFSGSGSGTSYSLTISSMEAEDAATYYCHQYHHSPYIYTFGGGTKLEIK ?
0.763

Which OD450nm value is on record for KB001 mouse Fab FASEBA VH S30M (Fab, V domains shown) VH: EVQLKQSGPGLVAPSQSLSITCTVSGFSLMIYSVHWVRQPPGKGLEWLGMIWGGGSSDYNSALKSRLSISKDNSKSQVFLKMNSLQTDDTAMYYCARNGNFYAMDYWGQGTSVTVSS VL: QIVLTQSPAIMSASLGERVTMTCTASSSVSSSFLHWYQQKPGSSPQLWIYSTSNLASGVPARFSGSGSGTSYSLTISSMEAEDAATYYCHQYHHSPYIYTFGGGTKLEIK ?
0.437

Which OD450nm value is on record for KB001 mouse Fab FASEBA VH G55D (Fab, V domains shown) VH: EVQLKQSGPGLVAPSQSLSITCTVSGFSLSIYSVHWVRQPPGKGLEWLGMIWGGDSSDYNSALKSRLSISKDNSKSQVFLKMNSLQTDDTAMYYCARNGNFYAMDYWGQGTSVTVSS VL: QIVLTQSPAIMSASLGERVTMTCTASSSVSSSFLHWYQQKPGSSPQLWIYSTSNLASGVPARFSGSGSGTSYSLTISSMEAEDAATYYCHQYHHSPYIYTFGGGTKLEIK ?
0.697

Which OD450nm value is on record for KB001 mouse Fab FASEBA VH L29P (Fab, V domains shown) VH: EVQLKQSGPGLVAPSQSLSITCTVSGFSPSIYSVHWVRQPPGKGLEWLGMIWGGGSSDYNSALKSRLSISKDNSKSQVFLKMNSLQTDDTAMYYCARNGNFYAMDYWGQGTSVTVSS VL: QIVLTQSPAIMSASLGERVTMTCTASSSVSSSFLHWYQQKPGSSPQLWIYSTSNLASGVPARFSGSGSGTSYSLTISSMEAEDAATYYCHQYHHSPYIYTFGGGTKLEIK ?
0.468

Which OD450nm value is on record for KB001 mouse Fab FASEBA VH I31F (Fab, V domains shown) VH: EVQLKQSGPGLVAPSQSLSITCTVSGFSLSFYSVHWVRQPPGKGLEWLGMIWGGGSSDYNSALKSRLSISKDNSKSQVFLKMNSLQTDDTAMYYCARNGNFYAMDYWGQGTSVTVSS VL: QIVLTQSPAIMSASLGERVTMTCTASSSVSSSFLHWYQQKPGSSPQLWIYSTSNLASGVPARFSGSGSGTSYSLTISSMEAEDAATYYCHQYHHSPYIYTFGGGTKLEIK ?
0.45

Which OD450nm value is on record for KB001 mouse Fab FASEBA VH S61R (Fab, V domains shown) VH: EVQLKQSGPGLVAPSQSLSITCTVSGFSLSIYSVHWVRQPPGKGLEWLGMIWGGGSSDYNRALKSRLSISKDNSKSQVFLKMNSLQTDDTAMYYCARNGNFYAMDYWGQGTSVTVSS VL: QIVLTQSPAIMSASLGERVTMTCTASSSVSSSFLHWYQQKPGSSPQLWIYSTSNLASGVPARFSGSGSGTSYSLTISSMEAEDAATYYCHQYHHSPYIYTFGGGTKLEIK ?
0.438

Which OD450nm value is on record for KB001 mouse Fab FASEBA VH A62E (Fab, V domains shown) VH: EVQLKQSGPGLVAPSQSLSITCTVSGFSLSIYSVHWVRQPPGKGLEWLGMIWGGGSSDYNSELKSRLSISKDNSKSQVFLKMNSLQTDDTAMYYCARNGNFYAMDYWGQGTSVTVSS VL: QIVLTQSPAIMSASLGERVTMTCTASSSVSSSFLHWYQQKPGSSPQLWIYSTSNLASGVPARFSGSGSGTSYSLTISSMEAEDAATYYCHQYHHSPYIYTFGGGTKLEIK ?
0.854

Which OD450nm value is on record for KB001 mouse Fab FASEBA VH Y59T (Fab, V domains shown) VH: EVQLKQSGPGLVAPSQSLSITCTVSGFSLSIYSVHWVRQPPGKGLEWLGMIWGGGSSDTNSALKSRLSISKDNSKSQVFLKMNSLQTDDTAMYYCARNGNFYAMDYWGQGTSVTVSS VL: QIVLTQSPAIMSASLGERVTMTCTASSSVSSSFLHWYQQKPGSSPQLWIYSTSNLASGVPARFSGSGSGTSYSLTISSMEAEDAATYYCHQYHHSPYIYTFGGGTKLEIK ?
0.744

Which OD450nm value is on record for KB001 mouse Fab FASEBA VH S61L (Fab, V domains shown) VH: EVQLKQSGPGLVAPSQSLSITCTVSGFSLSIYSVHWVRQPPGKGLEWLGMIWGGGSSDYNLALKSRLSISKDNSKSQVFLKMNSLQTDDTAMYYCARNGNFYAMDYWGQGTSVTVSS VL: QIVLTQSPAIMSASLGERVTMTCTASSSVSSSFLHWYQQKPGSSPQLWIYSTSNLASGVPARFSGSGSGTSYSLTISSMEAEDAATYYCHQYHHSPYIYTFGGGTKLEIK ?
0.448
